- method summary: recombinant barcode read abundance after kanamycin selection (control-corrected) (log10(CPM+1)); higher = more efficient recombination; sequences stand for … in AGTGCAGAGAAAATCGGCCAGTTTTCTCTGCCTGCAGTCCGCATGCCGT…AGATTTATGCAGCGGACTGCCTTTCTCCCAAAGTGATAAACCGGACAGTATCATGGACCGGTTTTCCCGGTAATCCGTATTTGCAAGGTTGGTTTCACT; site = the 11-nt target;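 also: IS621 recombinase and bridge RNA in Escherichia coli cells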
Give True when the value for recombinant barcode read abundance (log10) is at least 0.2. Give False when it is less.

sequence string	group
ACGATATCTTGGGTTCTAACCTGTTGCCT (site ACGATATCTAG)	True
CTGTTGTCTTGGGTTCTAACCTGTTGCCA (site CTGTTGTCTTG)	True
GAGAAGTCTTGGGTTCTAACCTGTTGCCT (site GAGAAGTCTAG)	True
CACATACCTTGGGTTCTAACCTGTTGCAT (site CACATACCTAT)	True
TCGAGTGCTTGGGTTCTAACCTGTTGCAG (site TCGAGTGCTCT)	True
TAGTCATCTTGGGTTCTAACCTGTTGCTC (site TAGCCATCTGA)	True
CCGTCTACTTGGGTTCTAACCTGTTGCTT (site CCGTCTACTCA)	True
GATGGTACTTGGGTTCTAACCTGTTGCAT (site ACGCACTCTCG)	False
TGAGTCCCTTGGGTTCTAACCTGTTGCTT (site TGAGTCCCTAA)	True
ATACGGACTTGGGTTCTAACCTGTTGCTA (site ATAAGGACTTA)	False
AGTCTAGCTTGGGTTCTAACCTGTTGCCC (site AGTCTAGCTGG)	True
CGATGTGCTTGGGTTCTAACCTGTTGCCT (site CGATGTGCTAG)	True
TAGATTCCTTGGGTTCTAACCTGTTGCAA (site CGACAGTCTAG)	False
CTCGACACTTGGGTTCTAACCTGTTGCCT (site CTGGACACTAG)	False
GTTACAACTTGGGTTCTAACCTGTTGCCT (site CTTACGACTAG)	False
TGTGCGACTTGGGTTCTAACCTGTTGCAC (site TGTGCGACTGT)	False
ACACCGCCTTGGGTTCTAACCTGTTGCCT (site GCACCGCCTAG)	False
CTCTTAACTTGGGTTCTAACCTGTTGCTA (site CTCTTAGCTTT)	False
TTGTGTTCTTGGGTTCTAACCTGTTGCTA (site TTGTGTTCTTA)	True
GGCGTAGCTTGGGTTCTAACCTGTTGCCT (site GACGTAGCTAG)	True
GACTGGGCTTGGGTTCTAACCTGTTGCTG (site GACTGGCCTAA)	True

Reference source for all entries: the supplement of paper PMC11208160
